B1: ANKRD44 (parent)
chain: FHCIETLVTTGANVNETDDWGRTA

- Variants of: B1
- ASSAY_TEXT: protein stability index of a GFP-peptide fusion (GPS, HEK-293T) (PSI 1-6); higher = more stable;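 also: lentivirally expressed fusions sorted by FACS into six bins by GFP to DsRed ratio, PSI derived from sequencing read proportions per bin multiplied by bin number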
- CONDITION_NOTES: c terminus: a fixed tail appended
OBSERVABLE: protein stability index
Numbers only.

In [3]: df
Out[3]:
   variant_annotation  reported_value
0                 I4Q               2
1                N15V               2
2                E16Q            1.45
3                A12W            3.07

I'm hoping you can list protein stability index for every variant here, please.
1. N13E
2. D18M
3. G11M
4. V8K

Output:
[1.69, 1.64, 1.5, 2.42]

I'm hoping you can list protein stability index for every variant here, please.
1. T6L
2. N13H
3. V14R
4. E16G

Output:
1. 3.01
2. 2.13
3. 2.61
4. 1.79

I'm hoping you can list protein stability index for every variant here, please.
1. H2S
2. T10A

Output:
[3.36, 1.72]
